B1: library; numbered along this chain (parent)
chain: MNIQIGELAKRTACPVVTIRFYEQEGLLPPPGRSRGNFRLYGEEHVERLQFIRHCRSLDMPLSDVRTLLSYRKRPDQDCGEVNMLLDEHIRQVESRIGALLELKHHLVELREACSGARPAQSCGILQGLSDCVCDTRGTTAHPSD

# Variants of: B1
# experimental protocol: sfGFP reporter fluorescence (15 h) (µM FITC); higher = stronger transcriptional activation
# condition notes: library round: Round 1; ligand: 30 µM Zn
Grouping key: sfGFP reporter fluorescence. Bins: 1: < 0.2; 2: ≥ 0.2 and < 0.7; 3: ≥ 0.7

- G128I C134E: 3
- D131A D135A: 3
- D64A R111L: 3
- N83T C134V: 1
- D135A P143F: 2
- M60L P61N D64K L107C G128M: 3
- N83S V108N: 1
- L107C G128I D135A P143K: 3
- P30V K104V: 2
- R111L G128I: 2
- R111A D131N: 3
- L107E G128I: 1
- V108I D131C: 1
- N83T E112H: 1
- K104R D135A: 2
- D64A K104C: 3
- N83S D135P: 1
- M60F P61N D64K: 3
- N83T L107E: 1
- K104V R111A: 2
- V16C K104V: 1
- D64A E94R: 3
- N83T C134A: 1
- N83T L110W: 1
- L107C R111L G128M: 3
- N83T L85R: 1
- E112I D131C: 1
- N83Y R111D: 1
- D131L D135S: 2
- P61S G128I D131C: 3
- D87S: 1
- P61N D64T E112I: 3
- D64K N83S I90N: 3
- P61A L107C G128M: 3
- N83T D131S D135A: 1
